Just for reference, paper PMC11651181 is where these values come from.

Procedure Details: Caco-2 permeability studies
Format: in vitro ADME
Settings: human, 1 h incubation
Description: Caco-2 cells (HTB-37) were cultured in T75 flasks using DMEM supplemented with 10% FBS, 1% glutamine, penicillin, and streptomycin at 37 °C and 5% CO2. […] Incubation lasted 1 h, and permeability was assessed using ranitidine/colchicine (low permeability) and labetalol/propranolol (high permeability) as controls. Samples were collected, quenched with methanol, centrifuged, and analyzed by HPLC-MS/MS to determine peak area ratios. […]
Parameter: Papp B→A at 1 h, 10 μM (×10⁻⁶ cm/s)
One number for each entry, in ×10⁻⁶ cm/s.

Entry `O=C(N[C@H]1CC[C@@]2(O)[C@H]3Cc4ccc(O)c5c4[C@@]2(CCN3CC2CC2)[C@H]1O5)c1nccs1` ; Papp B→A at 1 h, 10 μM = 33.2
